Kd values by entry
# Assay target: T1, human CD112R antigen protein huCD112R-His (Acro Biosysterm, PVG-H52H4) (human, UniProt Q6DKI7 41-171)
# T1 construct: purchased; also called human antigen protein; not shown: His tag
# T1 sequence (looked up): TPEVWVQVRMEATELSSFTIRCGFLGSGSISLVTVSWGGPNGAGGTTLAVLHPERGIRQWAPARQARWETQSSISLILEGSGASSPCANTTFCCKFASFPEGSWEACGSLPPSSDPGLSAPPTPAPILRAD
# Measurement notes: SPR (Biacore X100), antibody captured on Protein A chip, huCD112R-His as analyte, 1:1 Langmuir
Metric name: Kd (pM)

{"Binder": "C124 (antibody, human IgG1, kappa, V domains shown) VH: EVQLVESGGGLVKPGGSLKLSCAASGFTFSSFAMSWVRQTPAKRLESVATINNGGINTYYPDTVKGRFTVSRDNAKNTLYLQMSSLRSEDTAMYYCARHDDFLYYAMDYWGQGTSVTVSS VL: QIVLTQSPAIMSASPGEKVTMTCSASSSVSYMYWYQQKPGSSPRLLIYDTSNLASGVPVRFSGSGSGTSYSLTISRMEAEDAATYYCQQWTSYPLTFGAGTKLELKR", "Metric name": "Kd", "Value reported": 243}
{"Binder": "C11 (antibody, human IgG1, kappa, V domains shown) VH: EVQLQQSGPELVKPGASVKISCKASGYTFTDYFMNWVRQSHGKSLEWIGDIHPNNGSPNYNQKFKGKATLTVGKSSSTAYMELRSLTSEDSAVYYCATGYFDVWGTGTTVTVSS VL: DIVMTQSPSSLSVSAGEKVTMSCKSSQSLLNSGNQKNYLAWYQQKPGQPPKLLIYGASTRESGVPDRFTGSGSGTDFTLTISSVQAEDLAVYYCQNDHSYPWTFGGGTKLEIKR", "Metric name": "Kd", "Value reported": 62.2}
{"Binder": "C19 (antibody, human IgG1, kappa, V domains shown) VH: EVQLVESGGGLVKPGGSLKLSCAASGFTFSDYYMYWVRQTPEKRLEWVATISDAGGYTYYPDSVKGRFTISRDNARNSLYLQMSSLKSEDTAMYFCGREDLWGQGTSVTVSS VL: DIQMTQSPSSLSASLGERVSLTCRASQDIGYSLNWLQQEPDGSVRRLIYATSRLDSGVPKRFSGSRSGSDYSLTISSLESEDFVDYYCLQYASFPYTFGGGTKLEIKR", "Metric name": "Kd", "Value reported": 567}
{"Binder": "C8 (antibody, human IgG1, kappa, V domains shown) VH: EVQLVASGGGLVKPGGSLKLSCAASGFTFSDYYMFWVRQTPEKRLEWVATISDGGGYIYYPDSVKGRFTISRDNDRNSLYLQMSSLKSEDTAIYYCGREDFWGQGTSVTVSS VL: DIQMTQSPSSLSASLGERVSLTCRASQDIGRSLNWLQQEPDGSVRRLIYATSRLDSGVPKRFSGSRSGSDYSLTISSLESEDFVDYYCLQYASFPYTFGGGTKLEIKR", "Metric name": "Kd", "Value reported": 397}
{"Binder": "C71 (antibody, human IgG1, kappa, V domains shown) VH: EVILVESGGGLVKPGGSRKLSCAASGFTFSSYFMSWVRQTPEKRLEWVATISGGGDNTYYPDSVKGRFTISRDNAKNTLYLQMSSLRSEDTALYYCARHEDYEWYAMDYWGQGTSVTVSS VL: QIVLTQSPAIMSTSPGEKVTMTCSASSSVSYIYWYQQKPGSSPRLLIYDTSNLASGVPVRFSGSGSGTSYSLTISRMEAEDAATYYCQQWTSYPLTFGAGTKLELKR", "Metric name": "Kd", "Value reported": 158}
{"Binder": "C105 (antibody, human IgG1, kappa, V domains shown) VH: EVQLQQSGPELVKPGSSMKISCKASGYTFTDYSMDWVKQSHGKSLEWIGAINPNNGGTSYNQKFKDKATLTVDRSSSTAYMELRSLTSEDSAVYYCARWDSDYWYFDVWATGTTVTVSS VL: DIVMTQSQKFMSTSVGDRVSITCKASQNVRTAVDWYQQKPGQSPKALIYSASNRHTGVPDRFTGSGSGTDFTLTISNVQSEDLADYFCLQHWNYPYTFGGGTKLEIKR", "Metric name": "Kd", "Value reported": 716}
{"Binder": "C64 (antibody, human IgG1, kappa, V domains shown) VH: EVMLVESGGDLVKPGGSLKLSCAASGFTFSSYFMSWVRQTPEKRLEWVATISGGGDKTYYLDILKGRFTISRDNAKNTLYLQMSSLRSEDTALYYCARHEDYAWYAMDYWGQGTSVTVSS VL: QIVLTQSPAIMSASPGEKVTMTCSASSSVNYIYWYQQKPGSSPRLLIYDTSNLASGVPVRFSGSGSGTSYSLTISRMEAEDAATYYCQQWSSYPLTFGAGTKLELKR", "Metric name": "Kd", "Value reported": 800}
{"Binder": "C129 (antibody, human IgG1, kappa, V domains shown) VH: QVQLQQSGAELMTPGSSVKLSCKATGYTFTDYWIEWVKKRPGHGLEWIGEILPGYISTNYNEKFKDKATFTADTSSNTTYMQLSSLTSEDSAVYYCVLIVTTYYYFMDYWGQGTSVTVSS VL: QIVLTQSPAIMSASPGEKVTITCSASSSVTYMHWFQQKPGTSPKLWIYSTSNLASGVPVRFSGSGSGTSYSLTISRMEAEDAATYYCQQRSSYPWTFGGGTKLEIKR", "Metric name": "Kd", "Value reported": 375}
{"Binder": "C120 (antibody, human IgG1, kappa, V domains shown) VH: EVQLQQSGPEVVKPGASVKISCKASGNTLTDYFINWVKQSHGKNLEWIGDINPDNGAGNYNQKFKGKATLTVDKSSGTAFMGLRSLTSEDSAVYYCATLYFDYWGQGTTLTVSS VL: DIVMTQSPSSLSVSTGEKVTMSCRSSQSLLNSGNQKNYLAWYQQKPGQPPKLLIYGASTRESGVPDRFTGSGSGTDFTLTISSVQAEDLAIYYCQNAHTSPYTFGGGTRLEIKR", "Metric name": "Kd", "Value reported": 76.9}
{"Binder": "C155 (antibody, human IgG1, kappa, V domains shown) VH: EVQLVESGGGLVKPGGSLRLSCAASGFTFSDYYMYWVRQAPGKGLEWVATISDAGGYTYYPDSVKGRFTISRDNAKNSLYLQMNSLRAEDTAVYYCGREDLWGQGTLVTVSS VL: DIQMTQSPSSLSASVGDRVTITCRASQDIGYSLNWFQQKPGKAPRRLIYATSRLDSGVPKRFSGSGSGTDFTLTISSLQPEDFATYYCLQYASFPYTFGGGTKLEIKR", "Metric name": "Kd", "Value reported": 603}
